The values you see were collected from patent US20210196796A1.

# tested on: T1, orthogonal hCD122 receptor (hoRb), hCD122 with H133D and Y134F (human, UniProt P14784 27-550)
# T1 sequence: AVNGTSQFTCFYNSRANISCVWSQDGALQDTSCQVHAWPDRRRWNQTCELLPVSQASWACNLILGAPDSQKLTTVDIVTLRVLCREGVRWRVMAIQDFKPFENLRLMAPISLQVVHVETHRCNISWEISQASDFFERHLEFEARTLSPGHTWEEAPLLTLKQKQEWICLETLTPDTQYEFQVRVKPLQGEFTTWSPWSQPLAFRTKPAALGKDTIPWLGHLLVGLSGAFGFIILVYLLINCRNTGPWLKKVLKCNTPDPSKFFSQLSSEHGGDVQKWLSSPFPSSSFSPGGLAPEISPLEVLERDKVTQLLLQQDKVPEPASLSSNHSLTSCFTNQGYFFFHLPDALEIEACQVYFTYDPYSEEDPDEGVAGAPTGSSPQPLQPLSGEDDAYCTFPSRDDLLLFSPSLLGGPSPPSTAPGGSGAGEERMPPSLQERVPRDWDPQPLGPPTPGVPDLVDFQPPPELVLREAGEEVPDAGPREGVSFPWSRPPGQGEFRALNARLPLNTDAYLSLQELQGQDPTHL
# assay details: cell-based or functional assay
Relative Proliferation Fold Change NKL 1:2 reference
value kind: Relative Proliferation Fold Change NKL 1:2 (fold)

- binder: "SQVLFA (Ref# 073) (ligand) APTSSSTKKTQLQLSQLLVLLFAILNGINNYKNPKLTRMLTFKFYMPKKATELKHLQCLEEELKPLEEVLNLAQSKNFHLRPRDLISNINVIVLELKGSETTFMCEYADETATIVEFLNRWITFCQSIISTLT"
  measured: 1.23
- binder: "KQVLKA (ligand) APTSSSTKKTQLQLKQLLVLLKAILNGINNYKNPKLTRMLTFKFYMPKKATELKHLQCLEEELKPLEEVLNLAQSKNFHLRPRDLISNINVIVLELKGSETTFMCEYADETATIVEFLNRWITFCQSIISTLT"
  measured: 5.12
